target: Neurogenic locus notch homolog protein 2 (Homo sapiens); test: Notch2 binders on small-molecule microarrays, primary screen, biochemical, small-molecule microarray, 635 nm fluorescence, stem cell growth factors (AID 1073); details: Notch2 binding, higher = more signal
Rule: composite z-score of 0.4 or more gives class 1; anything lower gives class 0.

Check out these entries, answers already filled in.
>  <Structure Smiles>
COc1ccc([Si](C)(C)[C@@H]2[C@@H](CC(=O)N3CCC[C@H]3CO)O[C@]3(C(=O)N(Cc4cccc(N5CCC5=O)c4)c4ccccc43)[C@H]2C)cc1

>  <Group>
class 0

$$$$
>  <Structure Smiles>
C=CCOC(=O)[C@H]1[C@@H]2C(=O)O[C@@H](c3ccccc3)[C@@H](c3ccccc3)N2[C@@H](c2ccc(OCCOC(=O)[C@H]3C[C@H]4C(=O)N[C@@H](Cc5ccccc5)C(=O)N4[C@H]3c3ccc(O)cc3)cc2)[C@]12C(=O)Nc1ccccc12

>  <Group>
class 0

$$$$
>  <Structure Smiles>
CO[C@@H]1COC(=O)[C@@H]2CCCN2C(=O)[C@@H](C)COC(=O)[C@H](COCc2ccccc2)NC(=O)CC=C[C@H]1C

>  <Group>
class 1

$$$$

Q. Hi, just wondering whether `CO[C@H]1O[C@H](CO)[C@@H](OC(=O)Nc2ccc3c(c2)OCO3)[C@H](OC(=O)Nc2ccccc2-c2ccccc2)[C@@H]1OC(=O)Nc1ccccc1-c1ccccc1` shows composite z-score of 0.4 or higher.
A. class 1

Q. Kindly determine if composite z-score recorded for `CCOC(=O)CCN1C(=O)[C@H]2[C@H]3[C@H](O)[C@H](O)CC(=NOC[C@@H](O)COCc4ccco4)[C@@H]3CC[C@H]2C1=O` is above or exactly 0.4.
A. class 0

Q. // inclusive: composite z-score at least 0.4? input: `C[C@H](c1ccccc1)N1C(=O)[C@H]2[C@@H]3C(=CC[C@H]2C1=O)C(=O)[C@H]1O[C@H]1[C@H]3O`
A. class 1

====

molecular target: E3 ubiquitin-protein ligase XIAP (Homo sapiens) (UniProt P98170); assay: XIAP binders, primary screen, biophysical, small-molecule microarray, fluorescence 635 nm (AID 1181); conditions: small-molecule microarray binding, higher = more signal;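 further: score merges 667 nm emission and signal to noise over triplicate slides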
Sequence (P98170 whole entry, looked up): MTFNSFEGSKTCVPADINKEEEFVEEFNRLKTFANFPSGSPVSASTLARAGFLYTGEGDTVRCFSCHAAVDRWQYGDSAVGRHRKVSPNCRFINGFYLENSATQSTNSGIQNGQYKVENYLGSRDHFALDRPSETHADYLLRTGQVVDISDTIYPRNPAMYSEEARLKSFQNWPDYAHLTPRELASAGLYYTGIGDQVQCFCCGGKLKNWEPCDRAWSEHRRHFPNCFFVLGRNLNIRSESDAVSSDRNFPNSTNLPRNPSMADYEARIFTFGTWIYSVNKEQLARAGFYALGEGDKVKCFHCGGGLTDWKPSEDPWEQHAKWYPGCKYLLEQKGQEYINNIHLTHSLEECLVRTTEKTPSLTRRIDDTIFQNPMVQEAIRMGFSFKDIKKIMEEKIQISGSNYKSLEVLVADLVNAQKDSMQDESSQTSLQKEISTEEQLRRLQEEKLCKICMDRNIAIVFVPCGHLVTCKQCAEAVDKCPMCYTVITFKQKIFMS
Recorded Metric: composite z-score
Respond numerically, and do not add a unit to the figure.

>  <Compound>
CN1C(=O)C2C=CC(C(O)c3ccc(Br)cc3)N(N(c3ccccc3)c3ccccc3)C2C1=O (configuration not stated)

>  <Numeric Value>
-0.0255

$$$$
>  <Compound>
COC(=O)[C@@]1(Cc2ccc(F)cc2)[C@@H]2C(=CC(=O)[C@H]2CC(=O)C(=O)N(C)C)CN1C(=O)c1ccccc1

>  <Numeric Value>
-0.174

$$$$
>  <Compound>
O=C1CCCC=C1C(O)CCOCc1ccccc1 (configuration not stated)

>  <Numeric Value>
-0.0525

$$$$
>  <Compound>
CC(C)=CCCC(C)=CCON=C1C[C@@H](O)[C@@H](O)[C@@H]2[C@@H]3C(=O)N(C[C@@H]4CCCO4)C(=O)[C@@H]3CC[C@@H]12

>  <Numeric Value>
-0.264

$$$$
>  <Compound>
COC(=O)[C@@H]1CC[C@H](C)[C@@H](c2ccc(C)cc2)N1C(=O)c1ccc(C=NOC[C@@H](O)COCc2ccco2)cc1

>  <Numeric Value>
-0.0891

$$$$
>  <Compound>
O=C1[C@H]2[C@H]3[C@H](O)[C@H](O)CC(=NOC[C@@H](O)COCc4ccco4)[C@@H]3CC[C@H]2C(=O)N1c1ccc(F)cc1F

>  <Numeric Value>
-0.37

$$$$

Shift focus to the following entry.
// assay E3 ubiquitin-protein ligase XIAP (Homo sapiens) (UniProt P98170), entry `COCCOC(=O)N1C(=O)[C@@]2(c3cc(C#Cc4ccc(OC)cc4)ccc31)[C@H](C(=O)N1CCN(c3ncccn3)CC1)[C@H]1C(=O)O[C@H](c3ccccc3)[C@H](c3ccccc3)N1[C@@H]2c1ccc(OCCO)cc1` , composite z-score value = -0.337

====

test: small-molecule microarray binders of probe aXIP, primary screen, biochemical, NeuroSMM set, 635/667 nm fluorescence (AID 1119); conditions: higher = more signal, called active from +8 up or from −8 down;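 further: probe is the protein aXip251-270 applied at 1 µg/mL to compound-printed slides; binding of probe to printed compounds measured as 667 nm fluorescence plus signal to noise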
Criterion: composite Z-score meeting or surpassing -0.2. Met: Y. Not met: N.

Use the examples below as a reference point.
>  <Structure Smiles>
COc1ccc(OC[C@H]2Cc3c(-c4ccccc4)nc4c(c3CO2)CN(CCOc2ccccc2)CC4)cc1

>  <Group>
Y

$$$$
>  <Structure Smiles>
COc1ccc(O[C@H]2C=C[C@@H](c3ccccc3)O[C@@H]2COC(=O)CCC(C)=NO[C@@H](C)c2cc(-c3c(C)cc(C)cc3C)no2)cc1

>  <Group>
N

$$$$
>  <Structure Smiles>
Cc1cc2c(c(=O)o1)[C@H](O)[C@H]1O[C@H]1C2=O

>  <Group>
Y

$$$$
>  <Structure Smiles>
NCCCCCNC(=O)[C@@H]1C[C@@H]2C(=O)N3CCC[C@H]3C(=O)N2[C@@H]1c1cccc(OCCO)c1

>  <Group>
Y

$$$$

Now look at this entry.
Q. Hello, I need to know if `C=CC[C@@H]1C=C[C@H](ON=C[C@@H](OC)[C@H](C)C=CCC(=O)OC)[C@@H](CO)O1` has measured composite Z-score not below -0.2. Thanks!
A. Y

====

// z-score lookup, one value per entry
experiment: A549 cell viability effects, profiling panel, calcein-AM fluorescence, 48 h, basal (AID 1162); conditions: higher = more signal; further: test concentration not given here
Number, no unit, nothing else.

Example cases with answers are listed next.
>  <Molecule>
COc1ccc(CCNC(=O)[C@@H]2c3ccccc3C(=O)N(c3ccc(C)cn3)[C@H]2c2ccc(CO)cc2)cc1

>  <z-score>
-0.174

$$$$
>  <Molecule>
CC(C)NC(=O)[C@@]1(c2ccc([N+](=O)[O-])cc2)CC(=O)N(CC23CC4CC(CC(C4)C2)C3)[C@@H]1c1ccc(CO)cc1I

>  <z-score>
-1.58

$$$$
>  <Molecule>
CC(C)=CCCC(C)=CCON=C1[C@H]2CCn3c(=O)n(C)c(=O)n3[C@H]2[C@H](O)[C@@H]2O[C@H]12

>  <z-score>
0.717

$$$$
>  <Molecule>
C=COC[C@H]1CN2[C@@H](CC[C@@H](C)[C@@H]2c2ccc(Br)cc2)C(=O)O1

>  <z-score>
0.197

$$$$
>  <Molecule>
C=CC[C@]1(C(=O)NCc2ccccc2)N=C(c2ccc(OCCCO)cc2)O[C@H]1c1ccccc1

>  <z-score>
-1.38

$$$$
>  <Molecule>
COc1ccc(OC[C@H]2Cc3c(-c4ccccc4)nc4c(c3CO2)CN(CCOc2ccccc2)CC4)cc1

>  <z-score>
0.823

$$$$
>  <Molecule>
O=C1C2=CC[C@H]3C(=O)N(Cc4ccc5c(c4)OCO5)C(=O)[C@H]3[C@H]2[C@H](O)[C@@H]2O[C@H]12

>  <z-score>
-0.227

$$$$
>  <Molecule>
CC(=O)OC[C@H]1O[C@H](CCON=C[C@@H](C)[C@H](OCc2ccccc2)C(C)C)C=C[C@@H]1OC(C)=O

>  <z-score>
-0.606

$$$$
>  <Molecule>
CCOC(=O)C[C@H]1[C@H](OC(=O)c2cc3ccccc3oc2=O)[C@@H](NC(=O)c2ccc3ccccc3n2)c2cc(OCCCO)ccc2N1C(=O)c1ccccc1

>  <z-score>
0.321

$$$$
>  <Molecule>
CC[C@@H](c1ccccc1)n1c(=O)n2n(c1=O)[C@H]1[C@H](O)[C@@H]3O[C@@H]3C(=NOCC(C)C)[C@H]1CC2

>  <z-score>
-0.342

$$$$

`CC(C)C[C@@H]1NC(=O)[C@H]2C[C@@H](C(=O)O)[C@@H](c3ccc(O)cc3)N2C1=O` yielded z-score of 0.48

z-score reading for `O=C1[C@H]2[C@H]3[C@H](O)[C@H](O)CC(=NOCc4ccccc4)[C@@H]3CC[C@H]2C(=O)N1C1CCCCC1` : -0.128

Record `C[C@@H](c1ccccc1)N1C(=O)[C@H]2[C@H]3[C@H](O)C=CC(=O)[C@@H]3CC[C@H]2C1=O` , field z-score: -0.0257

Summary for this molecule, COc1ccc(-c2ccc3c(n2)CCCN3CC(O)CN2CCCc3nc(C)c(C)cc32)cc1 (stereo not given) : z-score is -0.389

`CC(CCC(=O)OC[C@H]1O[C@H](C#Cc2ccccc2)C=C[C@@H]1Oc1ccc(C)cc1)=NOC[C@@H](O)COCc1ccco1` yielded z-score of 0.303

Measured z-score of `CN1C(=O)[C@@]2(CCC(=O)OC(C)(C)C)N=C(c3ccc(OCCCO)cc3)O[C@H]2c2ccccc21` : 0.575

Lookup result for `COCCOC(=O)N1C(=O)[C@@]2(c3ccccc31)[C@H](C(N)=O)[C@H]1C(=O)O[C@H](c3ccccc3)[C@H](c3ccccc3)N1[C@@H]2c1ccccc1OCCO` ; measured z-score: -0.421

Please fill in: z-score reported for CS(=O)(=O)CCOC(=O)C1=CC(CCCO)=CC(c2cccs2)N(Cc2cccc(OC(F)(F)F)c2)C=C1C(=O)OCCS(C)(=O)=O (stereo not given) = 0.0985

Reference source: PubChem BioAssay
